Hey, just so you know, these numbers are from patent US20250009745A1.

A collection of compounds and their measured IC50
# targetSystem: CDK2 (Homo sapiens, UniProt P24941)
# Construct: purchased Carna Company
# assayNotes: CDK enzymology experiment in vitro, capillary mobility shift assay (MSA)
# Assay type: biochemical
# setupConditions: read-out: CDK2 (nM) inhibitory IC50

// known answers, use as guide
Cn1cc(S(=O)(=O)N2CCC(Nc3ncc(C#N)c(NC4COC4)n3)CC2)cn1 :: 2.5 to 10 nM
CN(C)[C@@H]1CCCC1Nc1nc(NC2CCN(S(=O)(=O)c3cnn(C)c3)CC2)ncc1C#N (stereo partly drawn) :: 2.5 to 10 nM
O=S(=O)(c1ccc([C@H]2CCNC2)cc1)N1CCC(Nc2ncc(C(F)(F)F)c(O[C@H]3CCOC3)n2)CC1 (single isomer, unassigned) :: 0.5 to 2.5 nM
O=S(=O)(c1ccc(N2CCNCC2)c(F)c1)N1CCC(Nc2ncc(C(F)(F)F)c(O[C@H]3CCOC3)n2)CC1 :: 0.5 to 2.5 nM
CN1CC[C@@H](Oc2nc(NC3CCN(S(=O)(=O)c4cnn(C)c4)CC3)ncc2C#N)C1 :: 50 to 100 nM
CC(C)S(=O)(=O)N1CCC(Nc2ncc(C#N)c(NC3CCCC3)n2)CC1 :: 10 to 50 nM
O=S(=O)(c1ccc(C2=CCNCC2)cc1)N1CCC(Nc2ncc(C(F)(F)F)c(C=C3CCCC3)n2)CC1 :: 0.5 to 2.5 nM
Cn1cc(S(=O)(=O)N2CCC(Nc3cc(N[C@H]4CCOC4)c(C#N)cn3)CC2)cn1 :: 10 to 50 nM

query: Could you share which IC50 value was measured for CN(C)C1CCN(c2ccc(S(=O)(=O)N3CCC(Nc4ncc(C(F)(F)F)c(O[C@H]5CCOC5)n4)CC3)cc2)CC1 ?
result: < 0.5 nM

query: # iterate: C[C@@H]1CN(c2ccc(S(=O)(=O)N3CCC(Nc4ncc(C(F)(F)F)c(O[C@H]5CCOC5)n4)CC3)cc2)CCN1
result: < 0.5 nM

query: # iterate: N#Cc1cnc(NC2CCN(S(=O)(=O)c3ccc(C4CCNCC4)cc3)CC2)nc1NC1CCCC1
result: 0.5 to 2.5 nM

query: # iterate: C[C@H]1CN(c2ccc(S(=O)(=O)N3CCC(Nc4ncc(C(F)(F)F)c(O[C@H]5CCOC5)n4)CC3)cc2)C[C@H](C)N1
result: < 0.5 nM

query: # iterate: CN1CC=C(c2ccc(S(=O)(=O)N3CCC(Nc4ncc(C#N)c(NC5CCCC5)n4)CC3)cc2)CC1
result: 0.5 to 2.5 nM

query: # iterate: O=S(=O)(c1ccc(C2=CCNCC2)cc1)N1CCC(Nc2ncc(C(F)(F)F)c(N[C@@H]3CCC[C@H]3O)n2)CC1
result: 0.5 to 2.5 nM

query: # iterate: O=S(=O)(c1ccc(N2C3CCC2CNC3)cc1)N1CCC(Nc2ncc(C(F)(F)F)c(O[C@H]3CCOC3)n2)CC1
result: < 0.5 nM

====

A collection of compounds and their measured IC50
# targetSystem: CDK2 (Homo sapiens)
# Construct: purchased Carna Company
# assayNotes: CDK enzymology experiment in vitro, capillary mobility shift assay (MSA)
# Format: biochemical
# setupConditions: read-out: CDK2 (nM) inhibitory IC50

Cn1cc(S(=O)(=O)N2CCC(Nc3ncc(C#N)c(N[C@H]4CC[C@@H](O)C4)n3)CC2)cn1 (racemic) [Example 11] :: 0.5 to 2.5 nM
Cn1cc(-c2ccc(S(=O)(=O)N3CCC(Nc4ncc(C#N)c(N[C@@H]5CCC[C@H]5O)n4)CC3)cc2)cn1 [Compound 50] :: 0.5 to 2.5 nM
O=S(=O)([C@H]1CCCNC1)N1CCC(Nc2ncc(C(F)(F)F)c(NC3CCCC3)n2)CC1 :: 2.5 to 10 nM
Cn1cc(S(=O)(=O)N2CCC(Nc3ncc(C#N)c(O[C@@H]4CCC[C@@H]4O)n3)CC2)cn1 (relative stereo) :: 2.5 to 10 nM
Cn1cc(S(=O)(=O)N2CCC(Nc3ncc(C#N)c(CC4CCCC4)n3)CC2)cn1 :: 2.5 to 10 nM

query: Could you share which IC50 value was measured for CS(=O)(=O)N1CCC(Nc2ncc(C#N)c(-c3ccccc3)n2)CC1 ?
result: 10 to 50 nM

query: # iterate: Cn1cc(-c2ccc(S(=O)(=O)N3CCC(Nc4ncc(C#N)c(N[C@H]5CC[C@H](O)C5)n4)CC3)cc2)cn1 (single isomer, unassigned)
result: 0.5 to 2.5 nM

====

# targetSystem: CDK1 (Homo sapiens, UniProt P06493)
# Construct: purchased Carna Company
# Sequence (P06493 whole entry): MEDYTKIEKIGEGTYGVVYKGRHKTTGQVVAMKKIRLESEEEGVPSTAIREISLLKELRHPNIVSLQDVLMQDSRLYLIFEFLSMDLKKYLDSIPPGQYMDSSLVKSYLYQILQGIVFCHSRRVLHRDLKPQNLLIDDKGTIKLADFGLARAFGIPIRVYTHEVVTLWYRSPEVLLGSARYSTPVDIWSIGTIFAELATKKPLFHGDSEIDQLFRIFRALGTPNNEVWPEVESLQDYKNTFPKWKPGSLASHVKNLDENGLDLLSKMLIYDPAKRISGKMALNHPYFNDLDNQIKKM
# Sequence (P14635 whole entry partner): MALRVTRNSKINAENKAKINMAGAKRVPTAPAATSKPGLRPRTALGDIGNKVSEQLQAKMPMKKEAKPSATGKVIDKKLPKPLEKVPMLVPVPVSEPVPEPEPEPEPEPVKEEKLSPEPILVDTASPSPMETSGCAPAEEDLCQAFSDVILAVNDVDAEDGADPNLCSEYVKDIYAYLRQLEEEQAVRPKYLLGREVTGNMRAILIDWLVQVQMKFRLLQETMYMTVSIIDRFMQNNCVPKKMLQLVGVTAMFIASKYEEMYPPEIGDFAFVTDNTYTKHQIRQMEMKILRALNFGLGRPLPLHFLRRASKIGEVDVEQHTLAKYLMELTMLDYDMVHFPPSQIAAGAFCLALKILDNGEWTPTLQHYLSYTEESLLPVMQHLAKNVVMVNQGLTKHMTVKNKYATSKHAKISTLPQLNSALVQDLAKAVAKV
# assayNotes: CDK enzymology experiment in vitro, capillary mobility shift assay (MSA)
# Format: biochemical
# setupConditions: read-out: CDK1 (nM) inhibitory IC50
A collection of compounds and their measured IC50

query: Could you share which IC50 value was measured for O=S(=O)(c1ccc(C2CCNCC2)c(F)c1)N1CCC(Nc2ncc(C(F)(F)F)c(O[C@H]3CCOC3)n2)CC1 ?
result: 10 to 50 nM

query: # iterate: Cn1cc(-c2ccc(S(=O)(=O)N3CCC(Nc4ncc(C#N)c(NC5CCCC5)n4)CC3)cc2)cn1
result: 10 to 50 nM

query: # iterate: O=S(=O)(c1ccc(N2CC[C@H](O)C2)cc1)N1CCC(Nc2ncc(C(F)(F)F)c(O[C@H]3CCOC3)n2)CC1
result: 2.5 to 10 nM

query: # iterate: Cn1cc(S(=O)(=O)N2CCC(Nc3ncc(C#N)c(N[C@@H]4CCC[C@H]4O)n3)CC2)cn1
result: 10 to 50 nM

query: # iterate: CS(=O)(=O)N1CCC(Nc2cc(NC3CCCC3)c(C#N)cn2)CC1
result: 100 to 1000 nM

====

A collection of compounds and their measured IC50
# targetSystem: CDK2 (Homo sapiens, UniProt P24941)
# Construct: purchased Carna Company
# assayNotes: CDK enzymology experiment in vitro, capillary mobility shift assay (MSA)
# Assay type: biochemical
# setupConditions: read-out: CDK2 (nM) inhibitory IC50

// known answers, use as guide
Cn1cc(-c2ccc(S(=O)(=O)N3CCC(Nc4ncc(C#N)c(N[C@H]5CC[C@@H](O)C5)n4)CC3)cc2)cn1 (relative stereo) [Compound 62] :: 0.5 to 2.5 nM
CN1CC=C(c2ccc(S(=O)(=O)N3CCC(Nc4ncc(C(F)(F)F)c(O[C@H]5CCOC5)n4)CC3)cc2)CC1 [Compound 203] :: < 0.5 nM
Cn1cc(-c2ccc(S(=O)(=O)N3CCC(Nc4ncc(C#N)c(N[C@@H]5CC[C@H](O)C5)n4)CC3)cc2)cn1 (single isomer, unassigned) [Compound 87] :: 0.5 to 2.5 nM

query: Could you share which IC50 value was measured for Cn1cc(S(=O)(=O)N2CCC(Nc3ncc(C#N)c(NC4CCC4)n3)CC2)cn1 [Compound 76] ?
result: 2.5 to 10 nM

query: # iterate: Cn1cc(S(=O)(=O)N2CCC(Nc3ncc(C#N)c(NC(C)(C)C)n3)CC2)cn1 [Compound 42]
result: 10 to 50 nM

query: # iterate: Cn1cnc(S(=O)(=O)N2CCC(Nc3ncc(C(F)(F)F)c(NC4CCCC4)n3)CC2)c1 [Compound 35]
result: 0.5 to 2.5 nM

query: # iterate: CN1CC[C@@H](Nc2nc(NC3CCN(S(=O)(=O)c4cnn(C)c4)CC3)ncc2C#N)C1 [Compound 71]
result: 2.5 to 10 nM

====

A collection of compounds and their measured IC50
# targetSystem: CDK4 (Homo sapiens, UniProt P11802)
# Construct: purchased Carna Company
# Sequence (P11802 whole entry): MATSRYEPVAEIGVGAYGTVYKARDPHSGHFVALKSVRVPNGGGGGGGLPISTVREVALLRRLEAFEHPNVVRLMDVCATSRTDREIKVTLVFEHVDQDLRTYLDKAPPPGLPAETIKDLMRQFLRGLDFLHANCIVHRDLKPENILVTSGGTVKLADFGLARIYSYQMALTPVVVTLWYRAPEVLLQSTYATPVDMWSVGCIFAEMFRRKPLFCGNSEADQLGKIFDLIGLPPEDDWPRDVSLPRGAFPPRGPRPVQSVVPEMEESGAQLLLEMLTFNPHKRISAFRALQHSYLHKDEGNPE
# Sequence (P30281 whole entry partner): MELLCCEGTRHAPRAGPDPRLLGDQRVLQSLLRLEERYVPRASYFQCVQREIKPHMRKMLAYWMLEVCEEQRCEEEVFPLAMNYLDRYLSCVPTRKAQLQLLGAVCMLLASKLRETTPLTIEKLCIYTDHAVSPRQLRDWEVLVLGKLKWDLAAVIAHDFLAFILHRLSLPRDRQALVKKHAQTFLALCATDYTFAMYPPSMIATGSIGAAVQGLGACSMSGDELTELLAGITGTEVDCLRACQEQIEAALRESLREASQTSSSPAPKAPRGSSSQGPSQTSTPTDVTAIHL
# assayNotes: CDK enzymology experiment in vitro, capillary mobility shift assay (MSA)
# Type: biochemical
# setupConditions: read-out: CDK4 (nM) inhibitory IC50

// known answers, use as guide
CN1CC[C@@H](Oc2nc(NC3CCN(S(=O)(=O)c4cnn(C)c4)CC3)ncc2C#N)C1 [Compound 73] :: 100 to 1000 nM
C[C@@H]1COCCN1c1nc(NC2CCN(S(=O)(=O)c3cnn(C)c3)CC2)ncc1C#N [Compound 38] :: 50 to 100 nM
Cn1cc(S(=O)(=O)N2CCC(Nc3ncc(C(F)(F)F)c(N[C@@H]4CCC[C@H]4O)n3)CC2)cn1 [Compound 54] :: 10 to 50 nM
CS(=O)(=O)N1CCC(Nc2cc(NC3CCCC3)c(C#N)cn2)CC1 [Example 2] :: 10 to 50 nM
CN1CCN(Cc2ccc(S(=O)(=O)N3CCC(Nc4ncc(C#N)c(NC5CCCC5)n4)CC3)cc2)CC1 [Example 22] :: 10 to 50 nM
O=S(=O)(c1ccc(C2CCNCC2)c(F)c1)N1CCC(Nc2ncc(C(F)(F)F)c(O[C@H]3CCOC3)n2)CC1 [Compound 122] :: 0.5 to 2.5 nM
O=S(=O)(c1ccc(N2CCNC(C(F)(F)F)C2)nc1)N1CCC(Nc2ncc(C(F)(F)F)c(O[C@H]3CCOC3)n2)CC1 (stereo partly shown) [Compound 167] :: 0.5 to 2.5 nM
N#Cc1cnc(NC2CCN(S(=O)(=O)c3ccc(N4CCNC(=O)C4)cc3)CC2)nc1NC1CCCC1 [Compound 103] :: 2.5 to 10 nM

query: Could you share which IC50 value was measured for O=S(=O)(c1ccc(N2CC3CCC(C2)N3)nc1)N1CCC(Nc2ncc(C(F)(F)F)c(O[C@H]3CCOC3)n2)CC1 [Compound 182] ?
result: 0.5 to 2.5 nM

query: # iterate: Cn1cc(S(=O)(=O)N2CCC(Nc3ncc(C#N)c(S(=O)(=O)C4CCCC4)n3)CC2)cn1 [Compound 97]
result: 10 to 50 nM

query: # iterate: O=S(=O)(c1ccc([C@@H]2CCNC2)cc1)N1CCC(Nc2ncc(C(F)(F)F)c(O[C@H]3CCOC3)n2)CC1 (single isomer, unassigned) [Compound 151]
result: 0.5 to 2.5 nM

query: # iterate: Nc1ccc(S(=O)(=O)N2CCC(Nc3ncc(C(F)(F)F)c(O[C@H]4CCOC4)n3)CC2)cn1 [Compound 123]
result: 2.5 to 10 nM

query: # iterate: CS(=O)(=O)N1CCC(Nc2ncc(C#N)c(NC3CCCC3)n2)CC1 [Example 1]
result: 10 to 50 nM

query: # iterate: NC(=O)Cn1cc(S(=O)(=O)N2CCC(Nc3ncc(C(F)(F)F)c(O[C@H]4CCOC4)n3)CC2)cn1 [Compound 134]
result: 10 to 50 nM

query: # iterate: O=S(=O)(c1ccc(N2CC[C@@H](O)C2)cc1)N1CCC(Nc2ncc(C(F)(F)F)c(O[C@H]3CCOC3)n2)CC1 [Compound 140]
result: 0.5 to 2.5 nM

query: # iterate: Cn1cc(-c2ccc(S(=O)(=O)N3CCC(Nc4ncc(C#N)c(N[C@H]5CC[C@@H](O)C5)n4)CC3)cc2)cn1 (relative stereo) [Compound 62]
result: 0.5 to 2.5 nM

query: # iterate: O=S(=O)(c1ccc(C2=CCNCC2)cc1)N1CCC(Nc2ncc(C(F)(F)F)c(C=C3CCCC3)n2)CC1 [Compound 201]
result: 2.5 to 10 nM

query: # iterate: Cn1cc(S(=O)(=O)N2CCC(Nc3ncc(C#N)c(N[C@@H]4CCC[C@@]4(C)O)n3)CC2)cn1 (single isomer, unassigned) [Example 20]
result: 100 to 1000 nM

query: # iterate: Cc1nnc(-c2ccc(S(=O)(=O)N3CCC(Nc4ncc(C(F)(F)F)c(O[C@H]5CCOC5)n4)CC3)cc2)o1 [Compound 161]
result: 0.5 to 2.5 nM
